- Target under test: human HSV DNA polymerase UL30 (Human herpesvirus 1 (strain 17) (HHV-1) (Human herpes simplex virus 1))
- Protocol summary: biochemical
- Settings: 625 pM HSV polymerase, 20 minutes at room temperature; read-out: HSV-polymerase Biochemical IC50
Metric name: IC50 (µM)

Item smiles: Cn1nc(C(=O)NCc2ccc(C#N)cc2)c2c1C(=O)N(CC1(S(=O)(=O)N3CC[C@H](N)C3)CC1)CC2
Metric name: IC50
Measured value: 0.268

Item smiles: Cn1nc(C(=O)NCc2ccc(Cl)cc2)c2c1C(=O)N(CC1(S(=O)(=O)NC(C)(CO)CO)CC1)CC2
Metric name: IC50
Measured value: 0.292

Item smiles: Cn1nc(C(=O)NCc2ccc(C#N)cc2)c2c1C(=O)N(CC1(S(=O)(=O)C(C)(C)CN3CC4CC(C3)O4)CC1)CC2
Metric name: IC50
Measured value: 0.1

Item smiles: Cn1nc(C(=O)NCc2ccc(C#N)cc2)c2c1C(=O)N(CC1(S(=O)(=O)NC3CC3)CC1)CC2
Metric name: IC50
Measured value: 0.213

Item smiles: CS(=O)(=O)C1(CN2CCc3c(C(=O)NCc4ccc(Cl)cc4)nn(CCO)c3C2=O)CC1
Metric name: IC50
Measured value: 0.401

Item smiles: Cn1ccc(NS(=O)(=O)C2(CN3CCc4c(C(=O)NCc5ccc(C#N)cc5)nn(C)c4C3=O)CC2)n1
Metric name: IC50
Measured value: 0.062

Item smiles: N#Cc1ccc(CNC(=O)c2nn(CCO)c3c2CCN(CC2(S(=O)(=O)C4CC4)CC2)C3=O)cc1
Metric name: IC50
Measured value: 0.069
